System: ATP;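 note: ATP exposure 15 min at 22 °C before imaging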
Test: switch fluorescence ratio, 500 uM ATP over buffer (Cy3 cluster intensity, sum of 5 cycles each) (fold (ratio)); higher = stronger signal-on switching upon ATP binding; sequences stand for … in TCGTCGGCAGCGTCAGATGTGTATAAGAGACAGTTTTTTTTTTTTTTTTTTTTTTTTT…TC
Conditions: aptamer strand: ATP DNA aptamer (quencher-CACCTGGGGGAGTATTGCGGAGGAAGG + anchor), 100 nM annealed; ATP concentration: 500 uM
Some sequences, each annotated with its measured switch fluorescence ratio.
endpointName: switch fluorescence ratio

primarySequence	observedValue
AGGAATCCGG	1.03
AGGGAGAAGA	1
GAAAGAAACT	1.63
TTACGGGTAA	0.99
ATAAGAGGAG	0.995
AGTAAGGATC	1
AACAGCGGGC	1.03
GAATTATCAG	0.968
CGATAGATGA	0.993
AGCTTCAAAT	1
GTGTGGGAGC	1
GCCAATTAAT	1.01
CGGGGAAGGG	1.01
TCCCCCACAG	2.05
CGGTAACTGG	1.01
ATTACCCTCG	1.02
TTATTTCATT	0.997
CGCGGAGGGT	0.967
GGGGAGGGCT	0.964
ATATTTAGCG	0.968
GCAGCTGGGT	1.06
CGTTTTGCAG	1.03
ACACGTGCTA	1.01
GGTTTTTATT	0.992
CCGACGGAGG	1.99
GTAGTGAGCT	0.999

* * *

System: ATP;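 note: ATP exposure 15 min at 22 °C before imaging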
Assay: switch fluorescence ratio, 500 uM ATP over buffer (Cy3 cluster intensity, sum of 5 cycles each) (fold (ratio)); higher = stronger signal-on switching upon ATP binding; sequences stand for … in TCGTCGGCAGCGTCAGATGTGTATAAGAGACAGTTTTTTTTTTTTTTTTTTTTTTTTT…TC
Conditions: aptamer strand: ATP DNA aptamer (quencher-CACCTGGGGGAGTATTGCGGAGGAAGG + anchor), 100 nM annealed; ATP concentration: 500 uM
Rule: switch fluorescence ratio of 1 or more gives YES; anything lower gives NO.

primarySequence	testedSystem	assignedClass
ACGTAACGCT	ATP	YES
CTCACATGGG	ATP	YES
AGAGCATACT	ATP	YES
TAGTGCCGGG	ATP	YES
AGTAAGTCTG	ATP	NO

* * *

Test system: ATP;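 note: ATP exposure 15 min at 22 °C before imaging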
Test: switch fluorescence ratio, 500 uM ATP over buffer (Cy3 cluster intensity, sum of 5 cycles each) (fold (ratio)); higher = stronger signal-on switching upon ATP binding; sequences stand for … in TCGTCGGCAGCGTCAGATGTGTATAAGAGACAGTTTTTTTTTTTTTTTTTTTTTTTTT…TC
Settings: aptamer strand: ATP DNA aptamer (quencher-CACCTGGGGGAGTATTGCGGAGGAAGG + anchor), 100 nM annealed; ATP concentration: 500 uM
Overview of reported switch fluorescence ratio across a group of sequences:

primarySequence	switch fluorescence ratio
CTAGGTAACG	1.02
GTTTTAGAGG	1.01
CTCAGGACAG	0.995
TGGGGGCATA	1.09
TTCAATTTTT	0.997

* * *

Tested on: ATP;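 note: ATP exposure 15 min at 22 °C before imaging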
Test: switch fluorescence ratio, 500 uM ATP over buffer (Cy3 cluster intensity, sum of 5 cycles each) (fold (ratio)); higher = stronger signal-on switching upon ATP binding; sequences stand for … in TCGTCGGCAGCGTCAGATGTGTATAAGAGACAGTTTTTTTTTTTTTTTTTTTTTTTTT…TC
Details: aptamer strand: ATP DNA aptamer (quencher-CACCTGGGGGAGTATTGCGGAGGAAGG + anchor), 100 nM annealed; ATP concentration: 500 uM

primarySequence	switch fluorescence ratio
ACAGGGAAAG	1.04
TAAGCTGGAG	1.07
GAGTGGTCAG	0.964
TTGAGTGAGC	0.988
CCAGTTTTCC	1.01
GAAGTTAGGT	0.998
TTTAGTCTCA	1.02
GTTTTTCTTT	0.988
TTGTATGGGT	0.98
GGGAACTGGG	1.04
AGGAGGGATG	0.985
GCGGAATGGG	1.01
CTCGTGAGTT	1.02
GGACACGATT	0.986
ATGGTGTGGG	1.03
GGGGCTGTCT	1
AAGTGAGAAA	0.983
TTTTGTTCTT	0.984
ACCAATAAAC	1.09
GGGGCCGGTC	1
ACTAAAAATT	1.05
ATGTTGAGCC	0.987

The values you see were collected from the supplement of paper PMC10126150.
